Just for reference, patent US6583133B1 is where these values come from.

Listing of recorded MIC by entry.
system: E. faecalis 6; experiment: MIC, agar dilution method in Mueller Hinton agar; format: cell-based; details: Enterococcus faecalis, inoculum 10^4 CFU/spot, read-out: MIC
Give your result in µg/mL as a bare value.

Previously resolved entries follow.
- C[N+](C)(C/C=C/C1=C(C(=O)[O-])N2C(=O)[C@@H](NC(=O)CSc3nc4ccccc4s3)[C@H]2SC1)C(CO)CO: 1
- Cc1cccc[n+]1C/C=C/C1=C(C(=O)[O-])N2C(=O)[C@@H](NC(=O)CSc3ccc4ccccc4c3)[C@H]2SC1: 1
- C[N+](C)(C/C=C/C1=C(C(=O)[O-])N2C(=O)[C@@H](NC(=O)CSc3ccc4ccccc4c3)[C@H]2SC1)CCCO: 1
- O=C(CSc1ccc2ccccc2c1)N[C@@H]1C(=O)N2C(C(=O)[O-])=C(/C=C/C[n+]3ccccc3)CS[C@H]12: 0.5
- O=C(CSc1ccc2ccccc2c1)N[C@@H]1C(=O)N2C(C(=O)[O-])=C(/C=C/C[N+]34CCN(CC3)CC4)CS[C@H]12: 2
- O=C(CSc1ccc2ccccc2c1)N[C@@H]1C(=O)N2C(C(=O)[O-])=C(/C=C/C[n+]3cccc4ccccc43)CS[C@H]12: 0.25

Query: Fill in MIC for record O=C(CSc1nc2ccccc2s1)N[C@@H]1C(=O)N2C(C(=O)[O-])=C(/C=C/C[n+]3ccccc3)CS[C@H]12
Result: 2

###

tested on: S. aureus 42080 (MRSA); test: MIC against MRSA alone or in combination with imipenem or compound X, agar dilution; assay type: cell-based, Staphylococcus aureus; conditions: Staphylococcus aureus, MRSA, compound alone, inoculum 10^5 CFU/spot
Listing of recorded MIC by entry.

Previously resolved entries follow.
- C[N+](C)(C/C=C/C1=C(C(=O)[O-])N2C(=O)[C@@H](NC(=O)CSc3ccc4ccccc4c3)[C@H]2SC1)CCCO [Example 62]: 4 µg/mL
- O=C(CSc1ccc2ccccc2c1)N[C@@H]1C(=O)N2C(C(=O)[O-])=C(/C=C/C[n+]3ccccc3)CS[C@H]12 [Example 22]: 4 µg/mL
- O=C(CSc1ccc2ccccc2c1)N[C@@H]1C(=O)N2C(C(=O)[O-])=C(/C=C/C[N+]34CCN(CC3)CC4)CS[C@H]12 [Example 59]: 4 µg/mL

Shift focus to the following entry.
Query: Send back S. aureus 42080 (MRSA) MIC of C[C@@H](O)[C@H]1C(=O)N2C(C(=O)O)=C(SCCN=CN)C[C@H]12 [Imipenem, imipenem, reference compound] only.
Result: > 16 µg/mL
